target: PACAP-R3 (Homo sapiens); experiment: Cyclic AMP SPA on CHO cells expressing PACAP R3; type: cell-based; design: expressed in transfected cells; host or cells: CHO cells (Geneticin selection); details: cAMP SPA, CHO cells transfected with PACAP-R3; concentration at which 50% of maximum PACAP27 activity is achieved; NA = no detectable activities; read-out: R3 EC50
Sequence (P41587 24-438): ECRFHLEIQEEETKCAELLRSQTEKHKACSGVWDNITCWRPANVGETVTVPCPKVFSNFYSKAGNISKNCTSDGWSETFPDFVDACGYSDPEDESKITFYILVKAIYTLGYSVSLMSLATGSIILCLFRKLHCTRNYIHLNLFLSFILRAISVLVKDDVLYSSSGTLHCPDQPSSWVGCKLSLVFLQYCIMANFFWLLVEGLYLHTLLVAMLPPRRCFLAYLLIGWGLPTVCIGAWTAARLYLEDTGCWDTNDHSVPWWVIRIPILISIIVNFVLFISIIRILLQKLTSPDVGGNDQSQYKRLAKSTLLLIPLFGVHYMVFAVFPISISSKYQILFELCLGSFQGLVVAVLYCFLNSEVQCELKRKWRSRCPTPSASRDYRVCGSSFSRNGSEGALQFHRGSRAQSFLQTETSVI
No end group written: not given here.
MEASURED_METRIC: log10(EC50) (log10 of the value in nM)

# SUBSTANCE, MEASUREMENT_TARGET, log10(EC50)
records = [
    ("HSDAVFTDQYTRLRKQMAAKKYLNSIKNKRY [Peptide R3P71]", "PACAP-R3 (Homo sapiens)", -1.05),
    ("HSDAVFTENYTRLRKQMAVKKYLNSLKK-NH2 [Peptide R3P7]", "PACAP-R3 (Homo sapiens)", 0.60),
    ("H-HSDGIFTDSYSEYRKQMAVKKYLAAVL-NH2 [PAC12]", "PACAP-R3 (Homo sapiens)", 0.48),
    ("H-HSDGIFTESYSRYRKQMAVKKYLAALKKKRYKQRVKNK [Peptide R3P6]", "PACAP-R3 (Homo sapiens)", 1.90),
    ("HSDAVFTDNYTRLRKQLAVKKYLNSIKKGGT [Peptide R3P25]", "PACAP-R3 (Homo sapiens)", -0.15),
    ("HSDAVFTDNYTRLRKQMAVKKYLNSIKK-NH2 [Peptide R3P8]", "PACAP-R3 (Homo sapiens)", 0.15),
    ("H-HSDGIFTDSYSRYRKQMAVKKYKAAVL-NH2 [PAC23]", "PACAP-R3 (Homo sapiens)", 1.11),
    ("HSDAVFTDNYTRLRKQMAAKKYLNSIKNTR [Peptide R3P149]", "PACAP-R3 (Homo sapiens)", -0.30),
    ("HSDAVFTDNYTRLRKQMAAKKYLNSIKNKV [Peptide R3P169]", "PACAP-R3 (Homo sapiens)", -0.70),
    ("HSDAVFTDNYTRLRKQMAAKKYLNSIKNHR [Peptide R3P140]", "PACAP-R3 (Homo sapiens)", -0.52),
]
